All values here come from ChEMBL document CHEMBL4808208.

# Test system: Hepatitis B virus
# testDetails: Antiviral activity against Hepatitis B virus infected in human HepG2.2.15 cells assessed as reduction in HBsAg level measured after 4 days by AlphaLisa assay
# Format: functional, organism-based
# experimentalConditions: HepG2.2.15, 96 h
resultType: EC50

Study these solved cases before continuing.
[
  {
    "recordSmiles": "COCCCOc1cc2c(cc1OC)-c1cc(=O)c(C(=O)O)cn1[C@H](C(C)C)C2",
    "EC50": "1.8 nM"
  },
  {
    "recordSmiles": "COc1cc2c(cc1OCCCCCCC(=O)O)C[C@@H](C(C)C)n1cc(C(=O)O)c(=O)cc1-2",
    "EC50": "23 nM"
  },
  {
    "recordSmiles": "COc1cc2c(cc1OCCCCCCCC(=O)O)C[C@@H](C(C)C)n1cc(C(=O)O)c(=O)cc1-2",
    "EC50": "7.6 nM"
  },
  {
    "recordSmiles": "COc1cc2c(cc1OCC(=O)O)C[C@@H](C(C)C)n1cc(C(=O)O)c(=O)cc1-2",
    "EC50": "> 10000 nM"
  }
]

Next, consider the following compound.
Looking up COc1cc2c(cc1OCCCOCC(=O)O)C[C@@H](C(C)C)n1cc(C(=O)O)c(=O)cc1-2 , I found its EC50 recorded as 2780 nM
